Just for reference, PubChem BioAssay is where these values come from.

- Assay protocol: CREB reporter modulators under forskolin, primary screen, cell-based, PC12, CRE-LacZ reporter, forskolin-stimulated (AID 1146);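 further: PC12 cells with 6xCRE LacZ reporter stimulated by forskolin 10 µM; beta-galactosidase reporter signal reflecting CREB driven transcription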
- Applied conditions: luminescence, 4.5 h, higher = more signal, called active from +8 up or from −8 down

| Compound | z-score |
| --- | --- |
| CC1CC/C=C\[C@H]2OC34C=CCN(c5ccc(Cl)cc5)C(=O)[C@H]3N(CCCCCO)C(=O)[C@]4(C)C2C(=O)O1 (stereo partly drawn) | -0.75 |
| O=C1OCCC=C[C@H]2OC34C=CCN(Cn5nnc6ccccc65)C(=O)[C@H]3N(CCCCCCO)C(=O)[C@@H]4C12 (stereo partly drawn) | 0.0417 |
| NC(=O)NCC#Cc1ccc2c(c1)[C@]1(C(=O)N2)[C@H](C(=O)NC[C@H](O)c2ccccc2)[C@H]2C(=O)O[C@H](c3ccccc3)[C@H](c3ccccc3)N2[C@@H]1c1ccc(OCCO)cc1 | -0.535 |

---

- Assay protocol: P. aeruginosa biofilm formation inhibitors, primary screen, strain PAO1, LB-PBS medium, absorbance 600 nm (AID 1176); further: test concentration not given here
- Applied conditions: P. aeruginosa PAO1 growth/biofilm, A600, 12 h; higher = more signal
Kindly return rule met if reported z-score is no lower than 1; return rule not met if it is lower.

| Molecule | Assigned class |
| --- | --- |
| COC(=O)[C@@]1(Cc2ccccc2)[C@H]2c3cc(C(=O)N(C)C)n(CCc4ccc(O)c(OC)c4)c3C[C@H]2CN1C(=O)c1ccccc1 | rule not met |
| COc1ccc([Si](C)(C)[C@@H]2[C@@H](CC(=O)N3Cc4ccccc4C[C@H]3CO)O[C@]3(C(=O)N(Cc4cccc(N5C(=O)c6cccc7cccc5c67)c4)c4ccccc43)[C@H]2C)cc1 | rule met |
| COc1ccc(NC(=O)O[C@H]2[C@H](OC(=O)Nc3ccccc3)[C@@H](OC(=O)Nc3ccccc3)[C@@H](OC)O[C@@H]2CO)cc1 | rule not met |
| NC(=O)NCC#Cc1ccc2c(c1)[C@]1(C(=O)N2)[C@H](C(=O)NC[C@H](O)c2ccccc2)[C@H]2C(=O)O[C@H](c3ccccc3)[C@H](c3ccccc3)N2[C@@H]1c1ccc(OCCO)cc1 | rule met |
| COc1ccc([Si](C)(C)[C@@H]2[C@@H](CCO)O[C@]3(C(=O)N(Cc4ccc(N5CCCCC5=O)cc4)c4ccccc43)[C@H]2C)cc1 | rule met |
| O=C1NC(=O)C2C1C=CC(C(O)c1ccco1)N2Nc1ccccn1 (stereo unspecified) | rule not met |

---

Measured z-score, listed per entry for reference.
- Assay protocol: basal HepG2 mitochondrial membrane potential changes, profiling panel, cell-based, JC-1 fluorescence, 24 h, 100 nL compound (AID 1167); further: test concentration not given here
- Applied conditions: higher = more signal
Reported metric: z-score

| Molecule | Reported metric | Value measured |
| --- | --- | --- |
| CC(=O)NCCCC[C@@H]1NC(=O)[C@H]2C[C@@H](C(=O)NCCCC[N+](C)(C)C)[C@@H](c3cccc(OCCO)c3)N2C1=O | z-score | 0.105 |
| C[C@H]1NC(=O)[C@@]23C(=O)N[C@@H](Cc4ccccc4)C2[C@H](C)[C@@]2(C)O[C@H]2C3/C=C/C/C=C\CNC(=O)[C@H](Cc2ccccc2)NC1=O (stereo partly drawn) | z-score | 0.88 |
| NC(=O)NCC#Cc1ccc2c(c1)[C@]1(C(=O)N2)[C@H](C(=O)O)[C@H]2C(=O)O[C@H](c3ccccc3)[C@H](c3ccccc3)N2[C@@H]1c1ccc(OCCO)cc1 | z-score | -2.3 |
